Molecular target: c-Met (Homo sapiens)
Test: Delfia autophosphorylation kinase assay on the c-Met
Assay type: biochemical
Parameters: The purified His6 tagged cytoplasmic domain of c-Met was diluted to a concentration of 500 ng/ml; host or cells: Sf9 insect cells (baculovirus, pFastBacHTa)
Settings: His6 tagged cytoplasmic domain of c-Met, 1 μM ATP; read-out: cMet Delfia autophos IC-50
Sequence (P08581 956-1390 limits assumed): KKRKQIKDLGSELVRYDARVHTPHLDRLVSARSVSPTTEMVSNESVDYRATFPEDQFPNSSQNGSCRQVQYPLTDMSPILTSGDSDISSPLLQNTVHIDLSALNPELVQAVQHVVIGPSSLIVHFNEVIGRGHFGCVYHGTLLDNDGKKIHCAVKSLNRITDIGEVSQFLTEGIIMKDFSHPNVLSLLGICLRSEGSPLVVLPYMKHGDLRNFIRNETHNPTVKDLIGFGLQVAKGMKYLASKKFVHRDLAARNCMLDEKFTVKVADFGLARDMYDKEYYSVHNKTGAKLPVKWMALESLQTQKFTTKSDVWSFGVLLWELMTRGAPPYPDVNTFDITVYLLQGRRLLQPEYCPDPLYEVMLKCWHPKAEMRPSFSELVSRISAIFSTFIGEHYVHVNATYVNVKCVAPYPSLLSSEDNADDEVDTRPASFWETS
endpoint label: IC50 (nM)

Please review the following examples before continuing.
INSERT INTO results (molecule, subject_of_test, units_of_measure, numeric_result) VALUES
  ('COc1ccc(Cc2nnc3ccc(-c4cccs4)nn23)cn1 [Example 31]', 'c-Met (Homo sapiens)', 'nM', 77),
  ('COc1cnccc1-c1ccc2nnc(Cc3ccc4c(c3)CCO4)n2n1 [Example 41]', 'c-Met (Homo sapiens)', 'nM', 56),
  ('FC(F)(c1ccc2ncccc2c1)c1nnc2ccc(-c3cnc4ccccc4c3)nn12 [Example 66]', 'c-Met (Homo sapiens)', 'nM', 0.9);

[1] O=c1[nH]cnc2ccc(Cc3nnc4ccc(-c5cccnc5)nn34)cc12 [Example 69]
[2] COCCn1cc(-c2ccc3nnc(Cc4ccc5ncccc5c4)n3n2)cn1 [Example 16]
### Prompt Hi, I'm comparing two records. Which one has the lower IC50, 1 or 2 ? Mark your selection by writing its label.
### Response 2
(2: 9 nM, 1: 17 nM)

----------
Molecular target: c-Met (Homo sapiens)
Assay: Delfia autophosphorylation kinase assay on the c-Met
Assay type: biochemical
Design: The purified His6 tagged cytoplasmic domain of c-Met was diluted to a concentration of 500 ng/ml; host or cells: Sf9 insect cells (baculovirus, pFastBacHTa)
Settings: His6 tagged cytoplasmic domain of c-Met, 1 μM ATP; read-out: cMet Delfia autophos IC-50
endpoint label: IC50 (µM)

// below: answered compounds
INSERT INTO results (item_smiles, units_of_measure, numeric_result) VALUES
  ('[O-][n+]1ccc(Cc2nnc3ccc(-c4cccs4)nn23)cc1', 'µM', 1.19),
  ('CN1CCN(C(=O)c2ccc(-c3ccc4nnc(C(F)(F)c5ccc6ncccc6c5)n4n3)s2)CC1', 'µM', 0.003),
  ('c1csc(-c2ccc3nnc(Cc4ccc5sccc5c4)n3n2)c1', 'µM', 2.7),
  ('Cn1cc(-c2ccc3nnc(Cc4ccc5c(ccc[n+]5[O-])c4)n3n2)cn1', 'µM', 0.6);

[a] Oc1ccc(Cc2nnc3ccc(-c4ccn[nH]4)nn23)cc1
[b] Clc1ccc2cc(Cc3nnc4ccc(-c5cccnc5)nn34)ccc2n1
[c] Cn1ccc2cc(-c3ccc4nnc(Cc5ccc6ncccc6c5)n4n3)ccc21
[d] c1cnc2ccc(Cc3nnc4ccc(-c5ccncc5)nn34)cc2c1
[e] Clc1cc(-c2ccc3nnc(Cc4ccc5ncccc5c4)n3n2)ccn1
### Prompt Sort (5 compounds) by IC50: min first. Note for the reader: the ranking is given by listing the labels in the order requested.
### Response e, d, a, c, b
(e: 0.001 µM, d: 0.008 µM, a: 0.015 µM, c: 0.053 µM, b: 0.9 µM)

----------
Biological target: c-Met (Homo sapiens, UniProt P08581)
Test: Delfia autophosphorylation kinase assay on the c-Met
Assay type: biochemical
Parameters: The purified His6 tagged cytoplasmic domain of c-Met was diluted to a concentration of 500 ng/ml; host or cells: Sf9 insect cells (baculovirus, pFastBacHTa)
Conditions: His6 tagged cytoplasmic domain of c-Met, 1 μM ATP; read-out: cMet Delfia autophos IC-50
endpoint label: IC50 (nM)

Would you please look over these solved cases?
INSERT INTO measurements (item_smiles, units_of_measure, numeric_result) VALUES
  ('OCCCn1cc(-c2ccc3nnc(Cc4ccc5ncccc5c4)n3n2)cn1', 'nM', 0.8),
  ('c1cc2c(cc1Cc1nnc3ccc(-c4ccc(CN5CCOCC5)s4)nn13)CCO2', 'nM', 13);

[1] O=C(c1cncc(-c2ccc3nnc(Cc4ccc5ncccc5c4)n3n2)c1)N1CCOCC1
[2] c1csc(-c2ccc3nnc(Cc4ccncc4)n3n2)c1
[3] Nc1nc2ccc(Cc3nnc4ccc(-c5cccnc5)nn34)cc2s1
[4] CC(C)CCNC(=O)c1ccc(-c2ccc3nnc(Cc4ccc5c(c4)CCO5)n3n2)s1
[5] Oc1ccc(Cc2nnc3ccc(-c4nccs4)nn23)cc1
### Prompt # sort list by recorded IC50, greatest to least Put the labels in the requested order and list them out.
### Response 1, 2, 3, 5, 4

----------
Target: c-Met (Homo sapiens)
Assay: Delfia autophosphorylation kinase assay on the c-Met
Format: biochemical
Parameters: The purified His6 tagged cytoplasmic domain of c-Met was diluted to a concentration of 500 ng/ml; host or cells: Sf9 insect cells (baculovirus, pFastBacHTa)
Conditions: His6 tagged cytoplasmic domain of c-Met, 1 μM ATP; read-out: cMet Delfia autophos IC-50
pIC50: −log10 of the molar value.
endpoint label: pIC50

Worked examples follow.
INSERT INTO assay_data (item_smiles, endpoint_label, numeric_result) VALUES
  ('C#Cc1cc(-c2ccc3nnc(C(F)(F)c4ccc5ncccc5c4)n3n2)ccn1', 'pIC50', 8.30),
  ('CN1CCN(C(=O)c2ccc(-c3ccc4nnc(C(F)(F)c5ccc6occc6c5)n4n3)s2)CC1', 'pIC50', 8.52),
  ('Cc1ccsc1-c1ccc2nnc(Cc3ccc4c(c3)CCO4)n2n1', 'pIC50', 7.39),
  ('Oc1ccc(Cc2nnc3ccc(-n4ccnc4)nn23)cc1', 'pIC50', 7.15),
  ('FC(F)(c1ccc2ncccc2c1)c1nnc2ccc(-c3ccncc3)nn12', 'pIC50', 9.00);

[A] N#Cc1cc(-c2ccc3nnc(C(F)(F)c4ccc5ncccc5c4)n3n2)ccn1
[B] COc1ccc(-c2ccc3nnc(Cc4ccc5ncccc5c4)n3n2)cn1
### Prompt Lowest pIC50? choose A or B To answer, give the label that identifies your chosen option.
### Response B
(B: 8.40, A: 9.00)

----------
Biological target: c-Met (Homo sapiens, UniProt P08581)
Assay: Cell based ELISA assay for HGF stimulated c-Met phosphorylation in S114 cells
Set-up: expressed in transfected cells; host or cells: S114 (murine NIH 3T3 derived)
Conditions: read-out: c-Met Cell ELISA IC-50
Sequence (P08581 25-1390): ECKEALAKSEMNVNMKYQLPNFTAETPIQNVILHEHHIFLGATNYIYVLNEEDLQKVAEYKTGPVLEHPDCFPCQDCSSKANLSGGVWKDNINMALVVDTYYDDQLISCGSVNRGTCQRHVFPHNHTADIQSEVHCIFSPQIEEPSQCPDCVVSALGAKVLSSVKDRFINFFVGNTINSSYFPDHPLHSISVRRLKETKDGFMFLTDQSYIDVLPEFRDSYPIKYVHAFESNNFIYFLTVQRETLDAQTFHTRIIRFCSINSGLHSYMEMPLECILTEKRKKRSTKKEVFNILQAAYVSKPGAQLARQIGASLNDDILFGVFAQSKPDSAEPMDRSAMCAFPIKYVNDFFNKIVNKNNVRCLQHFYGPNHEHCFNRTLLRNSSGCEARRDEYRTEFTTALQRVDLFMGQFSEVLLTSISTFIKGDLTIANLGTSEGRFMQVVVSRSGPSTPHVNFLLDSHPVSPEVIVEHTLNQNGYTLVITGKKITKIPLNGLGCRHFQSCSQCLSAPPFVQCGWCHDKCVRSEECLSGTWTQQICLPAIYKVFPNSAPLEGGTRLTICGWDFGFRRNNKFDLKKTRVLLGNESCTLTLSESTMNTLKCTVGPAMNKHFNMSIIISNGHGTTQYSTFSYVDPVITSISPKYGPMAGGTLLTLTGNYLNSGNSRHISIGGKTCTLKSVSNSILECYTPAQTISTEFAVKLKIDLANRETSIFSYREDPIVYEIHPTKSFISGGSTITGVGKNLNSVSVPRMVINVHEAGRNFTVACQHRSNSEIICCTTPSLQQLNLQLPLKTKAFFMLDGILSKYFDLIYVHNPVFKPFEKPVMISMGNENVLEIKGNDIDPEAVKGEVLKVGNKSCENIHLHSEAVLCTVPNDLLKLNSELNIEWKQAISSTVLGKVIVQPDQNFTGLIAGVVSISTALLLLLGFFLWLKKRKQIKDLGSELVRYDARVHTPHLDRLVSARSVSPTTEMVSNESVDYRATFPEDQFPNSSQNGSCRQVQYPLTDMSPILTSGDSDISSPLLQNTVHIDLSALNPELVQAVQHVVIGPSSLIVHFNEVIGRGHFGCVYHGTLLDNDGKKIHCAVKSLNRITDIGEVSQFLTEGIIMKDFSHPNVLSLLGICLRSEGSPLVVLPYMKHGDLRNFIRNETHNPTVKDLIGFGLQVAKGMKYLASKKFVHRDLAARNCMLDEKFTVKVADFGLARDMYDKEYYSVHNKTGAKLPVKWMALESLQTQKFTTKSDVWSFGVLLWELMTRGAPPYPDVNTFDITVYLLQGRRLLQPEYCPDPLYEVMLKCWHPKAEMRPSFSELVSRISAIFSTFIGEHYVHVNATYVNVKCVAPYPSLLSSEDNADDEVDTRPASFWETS
pIC50: −log10 of the molar value.
endpoint label: pIC50

[P] O=C(NCCN1CCOCC1)c1ccc(-c2ccc3nnc(Cc4ccc5c(c4)CCO5)n3n2)s1
[Q] Nc1nc2ccc(Cc3nnc4ccc(-c5cccnc5)nn34)cc2s1
[R] CS(=O)(=O)n1cc(-c2ccc3nnc(Cc4ccc5ncccc5c4)n3n2)cn1
[S] CCCc1ncc(-c2ccc3nnc(Cc4ccc5ncccc5c4)n3n2)s1
### Prompt Could you put the items above in increasing order of their pIC50? // ordering of labels required in reply
### Response Q, R, P, S

----------
Target: c-Met (Homo sapiens, UniProt P08581)
Test: Delfia autophosphorylation kinase assay on the c-Met
Type: biochemical
Set-up: The purified His6 tagged cytoplasmic domain of c-Met was diluted to a concentration of 500 ng/ml; host or cells: Sf9 insect cells (baculovirus, pFastBacHTa)
Conditions: His6 tagged cytoplasmic domain of c-Met, 1 μM ATP; read-out: cMet Delfia autophos IC-50
endpoint label: IC50 (nM)

INSERT INTO results (item_smiles, numeric_result) VALUES
  ('COCCN(CCOC)C(=O)c1ccc(-c2ccc3nnc(Cc4ccc5c(c4)CCO5)n3n2)s1', 0.2);

[1] CS(=O)(=O)n1cc(-c2ccc3nnc(C(F)(F)c4ccc5ncccc5c4)n3n2)cn1
[2] Cn1cc(-c2ccc3nnc(Cc4ccc5ncncc5c4)n3n2)cn1
[3] Oc1ccc(Cc2nnc3ccc(-n4cccn4)nn23)cc1
[4] c1csc(-c2ccc3nnc(Cc4ccc5c(c4)CCO5)n3n2)c1
### Prompt List from greatest to least IC50. As an answer, provide the labels arranged in the order called for.
### Response 3, 2, 4, 1
(3: 227 nM, 2: 25 nM, 4: 15 nM, 1: 2 nM)

----------
Target: UniProtKB P08581
Test: Cell based ELISA assay for HGF stimulated c-Met phosphorylation in S114 cells
Design: expressed in transfected cells; host or cells: S114 (murine NIH 3T3 derived)
Details: read-out: c-Met Cell ELISA IC-50
pIC50: −log10 of the molar value.
endpoint label: pIC50

Reference set, count: 8
INSERT INTO assay_data (item_smiles, numeric_result) VALUES
  ('N#Cc1cc(-c2ccc3nnc(C(F)(F)c4ccc5ncccc5c4)n3n2)ccn1', 6.92),
  ('c1cnc2ccc(Cc3nnc4ccc(-c5ccc6[nH]ccc6c5)nn34)cc2c1', 9.05),
  ('c1csc(-c2ccc3nnc(Cc4ccncc4)n3n2)c1', 5.00),
  ('CCOC(=O)c1ccc(-c2ccc3nnc(Cc4ccc(O)cc4)n3n2)s1', 7.85),
  ('c1csc(-c2ccc3nnc(Cc4ccc5c(c4)OCO5)n3n2)c1', 6.46),
  ('FC(F)(c1ccc2ncccc2c1)c1nnc2ccc(-c3cccnc3)nn12', 8.10),
  ('c1cc2c(cc1Cc1nnc3ccc(-c4ccc(CN5CCOCC5)s4)nn13)CCO2', 6.39),
  ('Oc1ccc(Cc2nnc3ccc(-c4nccs4)nn23)cc1', 7.07);

[a] CN1CCN(C(=O)c2ccc(-c3ccc4nnc(C(F)(F)c5ccc6ncccc6c5)n4n3)s2)CC1
[b] CCCc1ncc(-c2ccc3nnc(C(F)(F)c4ccc5ncccc5c4)n3n2)s1
### Prompt Could you point out whether the larger pIC50 belongs to a or to b ? // return label of chosen record
### Response a
(a: 8.52, b: 7.43)

[a] Nc1ccc(-c2ccc3nnc(Cc4ccc5ncccc5c4)n3n2)cn1
[b] COCCN(CCOC)C(=O)c1ccc(-c2ccc3nnc(Cc4ccc5c(c4)CCO5)n3n2)s1
### Prompt Which item exceeds the other in pIC50, a or b ? Lab log: write the label of the selected item as the result.
### Response b

[a] COc1ccc(C(F)(F)c2nnc3ccc(-c4cccs4)nn23)cc1
[b] CN1CCN(C(=O)c2ccc(-c3ccc4nnc(Cc5ccc6ncccc6c5)n4n3)s2)CC1
[c] c1cnc2ccc(Cc3nnc4ccc(-c5cnc6ccccc6c5)nn34)cc2c1
[d] O=c1ccc(-c2ccc3nnc(Cc4ccc5ncccc5c4)n3n2)c[nH]1
[e] CN1CCN(C(=O)c2ccc(-c3ccc4nnc(Cc5ccc6c(c5)CCO6)n4n3)s2)CC1
### Prompt Ordering: ascending pIC50. Output the labels ranked as instructed.
### Response d, a, e, c, b
(d: 6.27, a: 6.50, e: 7.92, c: 8.70, b: 9.00)

[1] CN1CCN(C(=O)c2ccc(-c3ccc4nnc(C(F)(F)c5ccc6occc6c5)n4n3)s2)CC1
[2] Cn1cc(-c2ccc3nnc(Cc4ccc5ncncc5c4)n3n2)cn1
[3] CN(C)CCCNC(=O)c1ccc(-c2ccc3nnc(Cc4ccc(O)cc4)n3n2)s1
### Prompt Put these in order: smallest pIC50 first, largest last. Return value: ordered labels per request.
### Response 3, 2, 1
(3: 6.46, 2: 6.85, 1: 7.10)
